- SYSTEM_UNDER_TEST: IRAK3 (human) (UniProt Q9Y616)
- Sequence (Q9Y616 whole entry, looked up): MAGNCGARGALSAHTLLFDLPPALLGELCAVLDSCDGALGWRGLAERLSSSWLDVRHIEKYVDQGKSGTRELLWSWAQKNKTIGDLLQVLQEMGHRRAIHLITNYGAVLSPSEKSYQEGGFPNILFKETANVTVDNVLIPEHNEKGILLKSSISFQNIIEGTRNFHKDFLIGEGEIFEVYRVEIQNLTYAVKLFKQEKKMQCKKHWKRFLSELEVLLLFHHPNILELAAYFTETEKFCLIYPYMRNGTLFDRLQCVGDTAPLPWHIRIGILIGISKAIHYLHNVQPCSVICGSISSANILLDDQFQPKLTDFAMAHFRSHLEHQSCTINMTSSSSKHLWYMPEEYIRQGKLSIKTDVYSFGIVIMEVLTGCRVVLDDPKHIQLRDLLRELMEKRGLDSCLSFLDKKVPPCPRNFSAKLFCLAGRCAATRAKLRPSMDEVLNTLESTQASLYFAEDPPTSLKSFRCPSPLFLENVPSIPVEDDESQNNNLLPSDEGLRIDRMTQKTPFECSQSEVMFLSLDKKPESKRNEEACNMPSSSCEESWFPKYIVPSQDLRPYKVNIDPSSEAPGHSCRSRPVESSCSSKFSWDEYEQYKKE
- ASSAY_REMARKS: KINOMEscan competition binding
- APPLIED_CONDITIONS: compound 10.0 µM
READOUT: kinase still bound, per cent of control (%)
Express the result in % but write the number alone.

Ask | Given the entry "COc1cc2ncnc(-n3nc(-c4ccccn4)nc3N)c2cc1OC" , report its measured kinase still bound, per cent of control.
Reply | 12

Ask | Which measured kinase still bound, per cent of control value corresponds to "COc1cc(C(=O)N2CCC(N3CCN(C)CC3)CC2)ccc1Nc1ncc2c(n1)N(C)c1ccccc1C(=O)N2C" ?
Reply | 100

Ask | // lookup kinase still bound, per cent of control for "CCN1CCN(C(=O)Cc2ccc(Nc3ncc(F)c(Nc4ccc(C(=O)Nc5ccccc5Cl)cc4)n3)cc2)CC1"
Reply | 1.8

---

- SYSTEM_UNDER_TEST: UniProt:P53355
- Sequence (P53355 whole entry, looked up): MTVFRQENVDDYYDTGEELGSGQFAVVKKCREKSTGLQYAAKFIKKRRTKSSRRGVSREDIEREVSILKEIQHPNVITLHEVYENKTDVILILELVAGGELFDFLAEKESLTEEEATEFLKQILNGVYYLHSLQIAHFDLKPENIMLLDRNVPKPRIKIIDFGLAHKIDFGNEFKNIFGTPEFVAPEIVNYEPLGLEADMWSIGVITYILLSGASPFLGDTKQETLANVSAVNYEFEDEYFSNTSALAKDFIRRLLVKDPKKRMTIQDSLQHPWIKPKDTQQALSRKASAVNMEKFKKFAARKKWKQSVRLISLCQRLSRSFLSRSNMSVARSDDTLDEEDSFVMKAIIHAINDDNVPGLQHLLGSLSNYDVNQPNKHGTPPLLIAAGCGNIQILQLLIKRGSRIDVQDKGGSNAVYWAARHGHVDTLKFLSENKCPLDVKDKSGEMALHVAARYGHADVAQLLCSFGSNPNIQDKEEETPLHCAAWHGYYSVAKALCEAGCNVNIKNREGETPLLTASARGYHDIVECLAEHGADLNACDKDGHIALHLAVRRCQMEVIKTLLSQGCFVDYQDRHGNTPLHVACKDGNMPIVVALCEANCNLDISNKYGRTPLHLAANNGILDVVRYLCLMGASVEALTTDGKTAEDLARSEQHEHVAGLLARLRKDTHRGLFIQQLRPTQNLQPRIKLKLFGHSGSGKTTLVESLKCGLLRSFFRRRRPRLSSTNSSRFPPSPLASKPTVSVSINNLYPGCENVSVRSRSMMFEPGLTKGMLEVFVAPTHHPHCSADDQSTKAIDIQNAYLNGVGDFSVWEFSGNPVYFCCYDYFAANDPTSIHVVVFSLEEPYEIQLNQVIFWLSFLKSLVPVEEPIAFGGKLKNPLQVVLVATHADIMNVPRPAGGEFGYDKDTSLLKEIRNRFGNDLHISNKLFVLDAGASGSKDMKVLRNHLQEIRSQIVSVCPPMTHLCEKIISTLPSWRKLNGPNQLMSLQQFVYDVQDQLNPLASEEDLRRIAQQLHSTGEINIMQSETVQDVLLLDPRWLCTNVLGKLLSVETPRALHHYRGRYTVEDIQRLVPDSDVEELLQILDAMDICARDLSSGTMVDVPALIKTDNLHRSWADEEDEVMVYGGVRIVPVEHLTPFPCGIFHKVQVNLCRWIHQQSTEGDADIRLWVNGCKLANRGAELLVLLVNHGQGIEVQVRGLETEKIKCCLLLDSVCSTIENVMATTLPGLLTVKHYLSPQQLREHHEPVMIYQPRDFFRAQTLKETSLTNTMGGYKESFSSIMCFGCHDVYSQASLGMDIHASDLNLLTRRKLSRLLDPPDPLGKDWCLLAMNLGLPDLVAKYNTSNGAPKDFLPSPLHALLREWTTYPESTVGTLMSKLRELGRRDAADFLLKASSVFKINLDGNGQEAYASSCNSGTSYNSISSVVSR
- ASSAY_REMARKS: KINOMEscan competition binding
- APPLIED_CONDITIONS: compound 10.0 µM
# note: boundary value 6% maps to not fulfilled; kinase still bound, per cent of control below it maps to fulfilled

Ask | Take the molecule "CNC(=O)c1cc(Oc2ccc(NC(=O)Nc3ccc(Cl)c(C(F)(F)F)c3)cc2)ccn1" and say whether its kinase still bound, per cent of control is less than 6%.
Reply | not fulfilled

Ask | I wonder whether "COc1cc2ncnc(-n3nc(-c4ccccn4)nc3N)c2cc1OC" has kinase still bound, per cent of control below 6%. Can you tell?
Reply | fulfilled

Ask | Confirm or reject: kinase still bound, per cent of control of "O=C1NC(=O)/C(=C/c2ccc3nccc(-c4ccncc4)c3c2)S1" lies strictly below 6%
Reply | not fulfilled

Ask | Please check: kinase still bound, per cent of control for "COc1cc(C(=O)N2CCC(N3CCN(C)CC3)CC2)ccc1Nc1ncc2c(n1)N(C)c1ccccc1C(=O)N2C" , strictly under 6% or not?
Reply | not fulfilled

Ask | Answer whether the molecule "C[C@@H](Oc1cc(-c2cnn(C3CCNCC3)c2)cnc1N)c1c(Cl)ccc(F)c1Cl" has kinase still bound, per cent of control strictly less than 6%
Reply | not fulfilled

Ask | Check if kinase still bound, per cent of control falls below 6% for "O=C(Nc1cccc(Nc2ncc(Br)c(NCCc3cnc[nH]3)n2)c1)N1CCCC1" .
Reply | fulfilled

Ask | Is kinase still bound, per cent of control strictly under 6% for the entry "COc1ccc(N(C(=O)Oc2c(C)cccc2C)c2ccnc(Nc3ccc(N4CCN(C)CC4)cc3)n2)c(OC)c1" ?
Reply | not fulfilled

Ask | Is 6% strictly greater than the molecule's reported kinase still bound, per cent of control? molecule: "COCC(=O)NC/C=C/c1ccc2ncnc(Nc3ccc(Oc4ccc(C)nc4)c(C)c3)c2c1"
Reply | not fulfilled

Ask | Strictly below 6%: is that where kinase still bound, per cent of control of "Cc1n[nH]c2ccc(-c3cncc(OC[C@@H](N)Cc4c[nH]c5ccccc45)c3)cc12" sits?
Reply | fulfilled

Ask | Given "O=c1cc(N2CCOCC2)oc2c(-c3cccc4c3sc3ccccc34)cccc12" , is recorded kinase still bound, per cent of control strictly lower than 6%?
Reply | not fulfilled

Ask | In plain terms, does "CCN(CC)CCCCNc1ncc2c(n1)N(C)C(=O)N(c1c(Cl)c(OC)cc(OC)c1Cl)C2" come in under 6% for kinase still bound, per cent of control?
Reply | not fulfilled

Ask | Item "COc1cc2ncn(-c3cc(OCc4ccccc4C(F)(F)F)c(C(N)=O)s3)c2cc1OC" : kinase still bound, per cent of control beneath 6%, strictly?
Reply | not fulfilled

Ask | API: query returns whether the molecule falls strictly under 6% in kinase still bound, per cent of control. Query: "CNC(=O)c1ccc(Nc2cc(Nc3ccccc3S(=O)(=O)C(C)C)c3cc[nH]c3n2)nc1"
Reply | not fulfilled

Ask | Does the reported kinase still bound, per cent of control of "NC(=O)Nc1cc(-c2cccc(F)c2)sc1C(=O)N[C@@H]1CCCNC1" stay below 6%?
Reply | fulfilled
